- protocol_details: label from the status in PepcDB records
readout_type: protein production

>>> result("MPHELSWGDIYFSPTLLVLFLAVTATWITVMILNKTRLSRFIAFPSLTFIAIMVGYVVAIDSFYIQF")
"failed"
>>> result("MRGWICVKLTKLNIKKYRAPIYKYALANVNLRSAKSTNSSIITVIPQGAKMEVLDEEDDWIKVMYNSQEGYVYKDLVSVSEYAWSNLNLREDKSTTSNIITVIPEKSRVEVLQVDGDWSKVVYDDKIGYVFNYFLSIDGNKPNELDYKYFYTDMIKFVNENNIKSTSDYLIVTDLRNKYTYIFKKDNGGWGQLYKWQCTIGKPETPTITGIFYISGRKPSFGTDEYSVKYATRIKGGYYYHSVLYDSTGSYIIDGRLGEALSHGCIRLSTENAKWIYDNIPDTTTVIIH")
"failed"
>>> result("MKSQWECFLQNLGVWEGSFSNFSPEGTLLNDTSSRLCLEGLNNNQTVRLTLSRSGKDDVIREFRSVGGGLLFFENGSFSEGLIQLGPFSEFGGELAFVHENRRLRLVQLFDRNGHLNGLTLIREHLAGTPVAERPLLQINDLLGEWRGQAVTIYRDLRPPDIYSTTLKIQLDDAGRLMQSTSFGERTITSTATIKGSIVLFDQDPEKQVQVLLLPDGASATSPLKVQLRQPLFLEAGWLIQSDLRQRMIRSYNDKGEWVSLTLVTEERV")
"not failed"
>>> result("MSLSLIKVGLVGIGAQMQENLLPSLLQMQDIRIVAACDSDLERARRVHRFISDIPVLDNVPAMLNQVPLDAVVMAGPPQLHFEMGLLAMSKGVNVFVEKPPCATLEELETLIDAARRSDVVSGVGMNFKFARPVRQLREMTQVDEFGETLHIQLNHYANKPRAPLWGLDSTLRSFLLAQAIHTIDLAITFGDGELRRVQSSVQRHDDALIVRADMAFSSGATASLLAGTSFPYFEFDMKLVSSSSTLVELDNLWNITLHEPEHATRPTGAAKRWRGAWQPGPLDSGYERSGYHGELHQFFQAIREHRRFEADFASLLPTYRVIEEICSADAVAQGLQNAHSRIRTGIESLSEGHHHHHH")
"not failed"
>>> result("MASLWFGLIASSALVIGAFVGVRFELPKRLLAILLSFAAGSLITALAFELFEDAYEQGGIVRAALGLLAGAIVFTALSALLDRWAQPGGKSTTKAADEIQGSPKLDTDAAASDKAATSASTRGAAGMALLAAVTLDGVPENLALGISLGEGSGGLALLAAIFVSNLPEALVGASSMKSQGRKAGPIMLLWSVCAVLLVAAVVLGAGPLSSAEPATISLPLAFAAGAVIASLADTLMPEAYEHGGPAVALSTAAGFVLSFTLSLA")
"failed"
>>> result("MMRFLFVDRIVQLSPGEWIKGIKHVTRDDAYLTTDDHGRLCFMPSLIGETLGQLAAWNVMQHNHFTARPVAGVVSSARLYRPAYVGETILLESNIDSLDEKAVQYHSIAKVGNDIIFTIDGALGPMLPMTEFISTEVIRQQFAEIYRPGDWSSVLALSSPVLIEENCSDCGMINSSMQFDRILASQPGISLIAEKRITRSASYFPDHFPKRPVLPMTVLLECKLNLAKEFIARAKYDRAYRISELRKIKMNEFVHPGDVVVCQVKVKQQMDDELILSYRCEVDGKRVCVVDIVLIPKGK")
"failed"

Ask: Answer with the recorded protein production of `MSDRKTMWDERYDTTDFVYGREPNAFLAEVVQQIPPGDVLCLAEGEGRNAVFLAKQGHRVLAVDSSAVGLVKAARLAEESGVRIETETADLAEFAIEPVCWDAIVSIFCHVPPQVRRALHRKVVEGLRPGGLFILEAYTPAQLKLRTGGPPTEEVMMTLAGLREELAGLEFLQAREIEREVVEGRFHTGRGAVVQVVARKP` only.
Result: failed

Ask: Answer with the recorded protein production of `MTLHEHTDEETAEHNLPSKSSGSTRRLALVAVVNFFGFVIELAGGLLFGSVALISDALHMLFDMLAYAMAFGASYTAERFEGGEAWSYGLHRLEPVAAFLNGVLLLPMVGYIVWESYQRFLEPVAINPELTLIIATGGLLVNIGSVYVLQGGEMSLNERGAFYHLLGDAGGSVAVIVSTAAVAVFDLPIADPVAAVLIGLLVLASAGNVLRESTSILLERSPVSSEELRDELTTLDGVDQIEDLHVWQVCSQLTVATVRLTDTSTTLEEQRRIQSRVHDYLTNRGIDHATVELVGRTDPDTDPVGTTNHSH` only.
Result: failed

Ask: Answer with the recorded protein production of `MGLKIIHNEGIEMKLQLKADLGLLLVTFFWGASILLTKVGLEGIEEYNLIALRFIIAFLLSGLIFYKHLFKIDFKTVKYAFILASVLFIVYIFATFGTKYTSVSNAGFLLCLTVIFIPILSAIFLKHIPEQKVIVGIILTIIGIGLLTLTSEFKIGNGDIFCILSALFYAIHVIITGSVTKHVNSIALGVVQLGFVGLFSLIFSFIIETPKLPSTINSWLIILALSIFCTAVAFIVQVIAQQYTTPTHTGLIFSLEPVFSAGFAFVFTGETLTRKGYLGATLILVSVLIAEVDFKSLLRVNYKKNVE` only.
Result: failed

Ask: Answer with the recorded protein production of `QKNPDSYNGAVRENYTWSQDYTDLEVRVPVPKHVVKGKQVSVALSSSSIRVAMLEENGERVLMEGKLTHKINTESSLWSLEPGKCVLVNLSKVGEYWWNAILEGEEPIDID` only.
Result: not failed

Ask: Answer with the recorded protein production of `MSFTGKDYSRFRSQQQRGNPHSSEGNTSAVHGTGQNSRPQTPINQASGASPQQGNQSPNGSVNHANPLASRLNDITLDELLDSLGRAGLLRLDPNRPPGTFWFEDDPSVPATVRSIFERDFKELHANWSMTPQHVVDRWFETFAQMYNWDKTINKRVKTEFEAKLKERMTDQVCRWKGKWREKGDAAMPRWFDPAVWAGLISFWRDPKSELKSINSRNARLHDPDGLGIHKHRSGQTSYKAHARKRCELTGETTPNFLVLLDKTHRKPDGSFIDGKSEEIYNEVSSRIQEESSQLCSNNTTESTASGGGSKEEREDIWGWFIAARSRMSSHWSFSSSRRSG` only.
Result: failed

* * *

- protocol_details: label from the status in PepcDB records
readout_type: protein production

>>> result("RISWVGEAVKTDGKKSYYKKVCIDAETLEVGDCVSVIPDDSSKPLYLARVTALWEDSSNGQMFHAHWFCAGTDTVLGATSDPLELFLVDECEDMQLSYIHSKVKVIYKAPSENWAMEGGMDPESLLEGDDGKTYFYQLWYDQDYARFESPPKTQPTEDNKFKFCVSCARLAEMRQKEIPRVLEQLEDLDSRVLYYSATKNGILYRVGDGVYLPPEAFTFNIKLSSPVKRPRKEPVDEDLYPEHYRKYSDYIKGSNLDAPEPYRIGRIKEIFCPKKSNGRPNETDIKIRVNKFYRPENTHKSTPASYHADINLLYWSDEEAVVDFKAVQGRCTVEYGEDLPECVQVYSMGGPNRFYFLEAYNAKSKSFEDPPNHARSP")
"failed"
>>> result("MEVDTMETLIRLFVSILIICVLALMIKKSRCLDNEGVIGSSIMGFILLYFCGFKYLILLLSFFILGVLVSRVGLEKKKAKKMDETCRSLKNVLANGLIPILFAILAIFGFNWALIGYISSIAAATSDTFSSELGILSNEKPRLITTFEVVEKGTDGAITIFGTLAGVLGAFLIGLFGYLLFGDIKIVLCGTAGGIAGNLADSLVGALFERKGILNNEHVNLIATIVGGIIGVLIYCTL")
"failed"
>>> result("MNNTNPLVSIIVPVYKVERYIHRSIDSLLRQTYNNLEIILVDDGSPDNCPFICDKYAMQDNRIRVIHKSNGGLSDARNAALNVMTGQYVTFVDSDDYIADNMIEKFIETVKLYQCNMVVAGMNIIDKNNQIYDYRRTLTSTLSTGIDITRKLLKDVFPFNFVCAKIFESSLFEEIRFPVGRHYEDTATTYKLTHKCERIYCIADCLYFYELEREGNITSELNTSKAIKSYIDGCLNSREQIFFCQKHKDFSDLLPVLTKRLQLWALLAIQSAISLGYKEYMFYYHQIRIYIRSLSYTQRMTHLQIALTFPIIYYSLYPLLSRLKKMYKN")
"failed"

* * *

- protocol_details: label from the status in PepcDB records
readout_type: protein production

Solved cases below.
>>> result("MSDINTVNLINQMKTLAAQAEGIKPDSGLNHASFSSVFQQALNQVNELSQTADSLKTRFEIGDPNVSLGEVMIASQKSNLGFEATLRVRNKLVQAYQDIMNMPV")
"failed"
>>> result("MMEDRSLNSHGMPSRRGLEPLEWGATGLTVVLSVAAAATQQAILTAIAPLPLSLAVGLNWVSRKKLDDQFQVFRQQQEAKIAELVASQGQQQSELASLNLALAQVRDRLEDVQKQVMQLNQGAQDLHDYTRILDTEQKQIEEVLDCLREIEKNTQVIQVNPSHAKAYYNRGLTHQRLGDAEAAILDYTEAIRLNDTYAKAYHNRGVARSTLGDRKGAVEDLRTAAKLFFEQGDISSYQRARDLAKRIHEVGSIEQDNQEGTIKEVPLEILFS")
"failed"
>>> result("MPAQQAEQAANLGLAGFQFLAQGVFAALLLQLHAFEFGARLTADLPLALLVGMLGAEGLFGLARAVFAHPLGGRLGLAARLGPGFAGFHERLYLRNVTQSE")
"failed"
>>> result("TLEWPELLQQCEQLNKPNQINLNPALLWQCQGVGSAPPASNLRESRIKAVLAINPVTNPIFGPDGMKNLAVPTLIVAGSKDIFAPPVPEQIIPFSLIEGVNKYLLLVQNGTHLSFLEDTDNLPEKIVGPGQDLAYTYMKSLGLAFFDLYLQQDSSFKPYLTDSVVQQMSQEPLPLQLVPSL")
"failed"
>>> result("MERDENYLRAKKRVENLKAFYIHLTVYILVNLMLFFINISSDSSKLWFLYPLAGWGIGIVIHALTTFPVGIFGKEWEERKIKEYMEKDK")
"failed"
>>> result("MLQRLFIFLLIFLILPDIYLYLRFIVHLTAKRWLRILYWLPAFLLSAGLLYLVYFSNNAFAERHTQAIGWFSIFFFLFTAPKLLLSLCTIIGVPFHKWLRWPRTPFICTGLTLAVISIVMIIYGSFIGRTQFDVKEVTYSSPKLPSAFDGYRIVQLSDIHIGSWQGNASAIQKLVKLVNEQQADLIVFTGDLVNHRAVELNDFQDILAGLKAKDGVYSILGNHDYGPYFHWKSKDEQDDNLNDLLQRQAAMGWKLLNNSHTILIQGSDSIALIGVENEGEPPFSQYADLPEAMRGTEGMFQILLSHNPTHWRREVLPQTYIDLMLAGHTHAMQLKFGNHSPSSYIYPEWSGMYLEGTRGLYVNEGIGYVGLPFRFGAWPEITVLTLRQ")
"failed"
>>> result("MQNNKTKLLDEVATYYAEKLAEHGDTPRGVDWNGEESQTIRFEQLCKVIDPKKMPGFSLNDLGCGYGALLDYLRDKYAACIYLGVDVSHEMIKAARQRHTAANQARFITSTEPDQVADYGVASGIFNVRLERTDAEWFDYLLGTLDVLNRTSSLGFAFNCLTSYSDEDKKRDYLYYADPCRLFDLCKRRYSRQVALLHDYGLYEFTILIRKALEHHHHHH")
"failed"
>>> result("SLMDVKCETPNCPFFMSVNTQPLCHECSERRQKNQN")
"not failed"
>>> result("MNALGTKARVVGTGVLVLGLLSGCTTAAPSPSSPTPTQATPTQAASSNAGPGPASSAAVPAQQSAEAKLSPEAQIETDRLLILAAKANDAAKVRELIAAGGNVNAKDEIQDSAFLYAGAEGFNEVLQLTLAAGADVRSTNRYGGTALIPASEHGHTETVRILIAAGVPVDHVNNLGWTAMQEAILPNNGGPNQQDVVRQLLAAGATPDIRDPQGRTALQNAERLGFTEIAALIRNR")
"failed"
>>> result("MHSEHGRQNVKVELKGVHRVRRKLASGETAVYHYAWRGGPRIDAAPGSAEFVAAYNAAHAARDRPVHHDGTLQALITAYQKTPAFTDLAEATRKGYIRHIRQIEADFGDMPVQALADPRVRGEFLDWRDRLAQKSKRSADYAFSVLARILSWAHDRRKIPVNPCEKPGRLYTGSRADSIWTEAQIAAFLAVAPRPVRLPFLLAIWTGQRQADILQLTWTAYDGQAIRLRQSKTGRHMLIPVAQPLREAMEEAKARRRTLTICETSRGQPWTSDGFKTSFGKAQASAGIEGVTFHDLRGTAVTFLALAGCSVPEIAALTGHSLKDAEGILSKHYLGRDRRLGESAVAKLEKHGVGTPTVKRAVKRRGPEGGDSV")
"failed"

Shift focus to the following entry.
Ask: Answer with the recorded protein production of `MGHHHHHHSHMTDCEFGYIYRLAQDYLQCVLQIPQPGSGPSKTSRVLQNVAFSVQKEVEKNLKSCLDNVNVVSVDTARTLFNQVMEKEFEDGIINWGRIVTIFAFEGILIKKLLRQQIAPDVDTYKEISYFVAEFIMNNTGEWIRQNGGWENGFVKKFEPK` only.
Result: not failed

These entries and their values trace back to a protein production outcome set (Wang et al. 2014).
